Reference for the values: patent US20220073604A1

# Lookup of reported fold improvement of KD over 28A6 (parental) keyed by entry
- studyTarget: T1, cynomolgus monkey IL-6 (cynomolgus monkey, UniProt P79341 28-212, limits assumed)
- T1 construct: Immobilised on the Biacore chip
- assayProcedure: SPR (Biacore), periplasmic Fab

Some solved entries appear below for comparison.
1) 55A11 (Fab, V domains shown, Periplasmic Fab; Suffix 'd' of the label not explained; also called 55A11d) VH: QVQLVESGGGLVQPGGSLRLSCAASGFTFSNYYMTWVRQAPGKGLEWVSSIYSFSGDTAYADSVKGRFTISRDNAKNTLYLQMNSLKSEDTAVYYCTRNLGGVVVTTNGYDYWGQGTQVTVSS VL: DIQMTQSPSSLPTSLGDSVTITCQASQSISDELSWYQQKPGQTPKLLIYGASRLQTGVPSRFSGRGSGTSFTLTISGLEAEDLATYYCLQGYSWPFMFGQGTKVELK: 9.28 fold
2) 48H1 (Fab, V domains shown, Periplasmic Fab; Suffix 'g2, R4' not explained; also called 48H1g2, R4) VH: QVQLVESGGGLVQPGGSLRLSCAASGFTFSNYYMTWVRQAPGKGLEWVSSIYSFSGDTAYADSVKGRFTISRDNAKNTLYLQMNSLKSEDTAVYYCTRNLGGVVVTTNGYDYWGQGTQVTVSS VL: DVVMTQSPSSLPTSLGDSVTITCQASQSISDELSWYQQKPGQTPKLLIYGASKLQTGVPSRFSGSGSGTSFTLTISGLEAEDLATYYCLQGYSWPFMFGQGTKVELK: 6.21 fold
3) 55C11 (Fab, V domains shown, Periplasmic Fab; Suffix 'f' not explained; also called 55C11f) VH: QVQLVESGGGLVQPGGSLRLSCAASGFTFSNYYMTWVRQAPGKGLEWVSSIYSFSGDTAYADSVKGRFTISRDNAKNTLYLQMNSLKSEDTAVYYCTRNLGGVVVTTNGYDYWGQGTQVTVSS VL: DIQLTQSPSSLSASLGDSVTITCQASQSISDELSWYQQKPGQTPKLLIYGASKLQTGVPSRFSGSGSGTSFTLTISGLEAEDLATYYCLQGYRWPFMFGQGTKVELK: 16.8 fold

Let us move to another entry and its fold improvement of KD over 28A6 (parental).
Recorded fold improvement of KD over 28A6 (parental) (binder 55E10 (Fab, V domains shown, Periplasmic Fab; Suffix 'g1' not explained; also called 55E10g1) VH: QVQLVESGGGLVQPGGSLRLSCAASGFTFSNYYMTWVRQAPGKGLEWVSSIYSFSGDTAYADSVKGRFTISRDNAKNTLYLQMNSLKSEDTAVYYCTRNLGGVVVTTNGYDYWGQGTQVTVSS VL: DIQMTQSPSSLPTSLGDSVTITCQASQSISDELSWYQQKPGQTPKLLIYGASKLQTGVPSRFSGSGSGTSFTLTISGLEAEDLATYYCLQGYSWPFMFGQGTKVELK ): 11 fold
